system: OVCAR-4; assay: NCI tumour cell line growth inhibition, 48 h
The source made the active and inactive calls. Cut-off read from the data, not from the text of the source: active = GI50 up to about 1.1 µM and inactive = higher. Where a SMILES comes first, the peptide text is derived from it. [ ]: non-standard residue; d: D form. The star is where a group is joined. ξ: configuration not given here. ξD = NC(CC(=O)O)C(=O)O; Boc = CC(C)(C)OC(=O)*; Aib = CC(C)(N)C(=O)O; OtBu = CC(C)(C)O*
Possible outcomes: yes (1) (active), no (0) (inactive)

compound=Cc1nc(=O)[nH]c(NCCNCCO)c1C(=O)Nc1cccc2cc3ccccc3cc12 category_label="no (0)"
compound="CCOC(=O)C(NC(=O)C(CCCCNP(=O)(OCC)OCC)NC(=O)C(C)NC(C)=O)C(C)C (stereo not drawn)" category_label="no (0)"
compound=CN(C)C(=S)/N=c1\ss/c(=N/c2ccccc2)n1C category_label="no (0)"
compound=Cc1cc(=O)oc2c(CN3CCCCC3)c(O)ccc12 category_label="no (0)"
compound="CN1NC(c2ccc(Cl)cc2)=C(C#N)C(=O)CC1c1ccccc1 (stereo not drawn)" category_label="no (0)"
compound=O=C1c2ccccc2C(=O)N1NC1=NCCN1 category_label="no (0)"
compound="Cc1cccc2c1Oc1cc(Cl)ccc1C2NC(=O)CCN1CCN(CCO)CC1 (stereo not drawn)" category_label="no (0)"
compound=C=C1CC2(OC1=O)c1ccccc1CCc1ccccc12 category_label="no (0)"
compound=CCc1c(O)c2c(c(O)c1C(C)=O)C(=O)c1c(cc(O)c(C(=O)O)c1C(=O)O)C2=O category_label="no (0)"
compound="Fc1ccc2c(c1)nc1n2C(c2c(F)cccc2F)SC1 (stereo not drawn)" category_label="no (0)"
compound=Cc1cc2c3c(coc3c1-c1c(C)cc3c4c(coc14)C(=O)C(O)=C3C(C)C)C(=O)C(O)=C2C(C)C category_label="no (0)"
compound="C=C1C(=O)O[C@H]2/C=C(/C)C3=CC(=O)[C@@](C)(C[C@@H](OC(=O)/C(C)=C\\C)C12)O3 (stereo partly drawn)" category_label="no (0)"
compound=O=C(NN=C1NCCN1)c1ccco1 category_label="no (0)"
compound=CCOC(=O)Cc1c(C)c2cc(C(=O)c3ccccc3)c(O)cc2oc1=O category_label="no (0)"
compound=COc1cc(/C=C\c2nnc(/C=C\c3ccc(O)c(OC)c3)s2)ccc1O category_label="no (0)"
compound=Cc1nc2ccccc2c(=O)n1Nc1ccc(C(=O)O)cc1 category_label="no (0)"
compound="COC(=O)C(C)(C)NC(=O)C(C)(C)NC(=O)C(CC(=O)OC(C)(C)C)NC(=O)OC(C)(C)C (stereo not drawn) (Boc-[ξD](OtBu)-[Aib]-[Aib]-OMe)" category_label="no (0)"
compound=COC(=O)c1ccccc1/C=C1/Cc2ccccc2C1=O category_label="no (0)"
compound=CC(C)C(=O)/C=C/c1ccc(Cl)cc1 category_label="no (0)"
compound=CC1=COC(=O)c2ccccc2N1 category_label="no (0)"
compound=COc1ccc(S(=O)(=O)N(CC(=O)O)c2ccccc2)cc1 category_label="no (0)"
compound=COc1ccc(-c2cc(-c3cc(C)ccc3O)nc(O)n2)cc1 category_label="no (0)"
compound="NC(Cc1ccc(OCc2ccccc2)cn1)C(=O)OCc1ccccc1 (stereo not drawn)" category_label="no (0)"
compound=N#Cc1c(Cl)c(C=O)c(=O)n2c1[nH]c1ccccc12 category_label="no (0)"
compound="CCOC(=O)c1cc(C2(OC)CCN(Cc3ccccc3)C2=O)c(-c2cc(C)no2)[nH]1 (stereo not drawn)" category_label="no (0)"
compound=CC(C)(C)C1=CC(=C2C=Cc3cc(O)ccc3O2)C=C(C(C)(C)C)C1=O category_label="no (0)"
compound=CS(=O)(=O)Nc1ccc(Nc2c3ccccc3nc3ccccc23)cc1 category_label="no (0)"
compound=N#C/N=C(\NCCc1c[nH]c2ccccc12)NCc1ccccc1 category_label="no (0)"
compound="NCCCC(N)C(=O)O (stereo not drawn)" category_label="no (0)"
compound=COc1cccc(NC(=O)CSc2nnc(-c3ccc(NC(C)=O)cc3)o2)c1 category_label="no (0)"
compound=CCN(CC)c1ccc2cc(C(=O)NCc3ccccc3)c(=N)oc2c1 category_label="no (0)"
compound="CC1=C(C(=O)Nc2cc(F)c(F)cc2F)C(c2cccc([N+](=O)[O-])c2)C(C(=O)Nc2ccccc2C(F)(F)F)=C(C)N1 (stereo not drawn)" category_label="no (0)"
compound=c1ccc2c(c1)N=c1ccccc1=P21c2ccccc2Nc2ccccc21 category_label="yes (1)"
compound=CC(C)[C@](O)(C(=O)OCC1=CCN2CC[C@@H](O)[C@@H]12)[C@H](C)O category_label="no (0)"
compound=O=C1Cc2c([nH]c3ccc(Br)cc23)-c2cc(O)c(O)cc2N1 category_label="no (0)"
compound="Cc1cc2nc3c(C(OC4OC(CO)C(O)C(O)C4O)C(O)CO)nn(-c4ccccc4)c3nc2cc1C (stereo not drawn)" category_label="no (0)"
compound=O=C(Nc1nc2ccccc2n1Cc1ccc(Cl)cc1)NC12CC3CC(CC(C3)C1)C2 category_label="no (0)"
compound=COc1cc2c(cc1OCCN1C(=O)c3cccc4cccc(c34)C1=O)N=C[C@@H]1CCCN1C2=O category_label="no (0)"
compound=CC1=[N+](C)CCCN1C category_label="no (0)"
compound=CCCCCCCCCCCCCC/C(C(=O)O)=C(\C)C(=O)O category_label="no (0)"
compound=O=C1C(Cl)=C(Sc2nnc3c4ccccc4c4ccccc4c3n2)C(=O)c2ccccc21 category_label="no (0)"
compound=C/C(=N\NC(=S)N1CCN(c2ccccn2)CC1)c1cccc2cccnc12 category_label="no (0)"
compound=O=C1N[C@H]2c3c(Cl)sc(Cl)c3C(=O)[C@H]2O1 category_label="no (0)"
